# Tested on: L1210 leukemia ip in BDF1 mice, survival T/C
# assay_protocol: NCI In Vivo Anticancer Drug Screen. Data for tumor model L1210 Leukemia (intraperitoneal) in B6D2F1 (BDF1) mice
# experimental_conditions: endpoint: mean survival time; dose: 75.0 mg/kg/injection; schedule: Q04DX003 (ip); vehicle: saline; higher = longer survival
Toxic doses and inconclusive results are not listed.
parameter: T/C

(Q) I'm curious: which T/C was measured for CCCCCCC[n+]1cccc(C#N)c1 tested on L1210 leukemia ip in BDF1 mice, survival T/C?
(A) 98 % of control

(Q) Then NCCSC1(O)C(=O)c2ccccc2-c2ccccc21 (configuration not stated) ?
(A) 103 % of control

(Q) Please do the same for COc1ccc(C(=O)/C=C/c2ccc(N(C)C)cc2)cc1 as well.
(A) 90 % of control

(Q) Okay, and O=C1/C(=C/c2ccccc2)CCC2C1CCCC21OCCO1 (configuration not stated) ?
(A) 100 % of control

(Q) What do you have for C/C(=N\Nc1nc2ccccc2s1)c1ccc2c(c1)Sc1ccccc1O2 ?
(A) 87 % of control

(Q) // same read-out, input: CNC(=O)c1cc(C(=O)NC)c[n+](Cc2c(Cl)cccc2Cl)c1
(A) 105 % of control

(Q) // repeat for Nc1c(Cl)c(Cl)c(Cl)c(Cl)c1C(=O)O and report
(A) 104 % of control
